- assay protocol: Inhibition of HCV genotype 1b NS5B polymerase infected in human HuH7 replicon cells by luciferase reporter gene assay
# note: boundary value 0.008 µM maps to not satisfied; EC50 below it maps to satisfied

# strict comparison: is reported EC50 < 0.008 µM? input = `CNC(=O)c1c(-c2ccc(F)cc2)oc2cc3c(cc12)[C@@H](C)OC1(CC1)CN3S(C)(=O)=O`
not satisfied

Dear reviewer, please state whether `CNC(=O)c1c(-c2ccc(F)cc2)oc2cc3c(cc12)[C@@H](C)NC(=O)CN3S(C)(=O)=O` has EC50 strictly beneath 0.008 µM.
not satisfied

Say whether its EC50 is strictly beneath 0.008 µM. Entry: `CS(=O)(=O)N1CCCCc2cc3c(-c4ncc[nH]4)c(-c4ccc(F)cc4)oc3cc21`
satisfied

###

- assay protocol: Inhibition of HCV genotype 4a NS5B polymerase infected in human HuH7 replicon cells by luciferase reporter gene assay
The reader will find reported EC50 values listed item by item below.
Please state the figure in nM; there is no need to write the unit.

Study these solved cases before continuing.
compound | measurement units | EC50
CNC(=O)c1c(-c2ccc(F)cc2)oc2cc3c(cc12)C(C)OC(CO)CN3S(C)(=O)=O (stereo not drawn) | nM | 32
CNC(=O)c1c(-c2ccc(F)cc2)oc2cc3c(cc12)[C@H](C)O[C@H](CO)CN3S(C)(=O)=O | nM | 9

Please examine the following record next.
Give me measured EC50, please, for this compound: CNC(=O)c1c(-c2ccc(F)cc2)oc2cc3c(cc12)C(C)OCC(CS(C)(=O)=O)N3S(C)(=O)=O (stereo not drawn)
51

###

Recorded pEC50 by entry
- assay protocol: Inhibition of HCV genotype 1b NS5B polymerase infected in human HuH7 replicon cells by luciferase reporter gene assay
Quick note: pEC50 means taking -log10 of the concentration in moles per liter.

Here's what some known entries look like.
molecule | pEC50
CNC(=O)c1c(-c2ccc(F)cc2)oc2cc3c(cc12)C(C)NC(=O)CN3S(C)(=O)=O (stereo not drawn) | 7.82
CNC(=O)c1c(-c2ccccc2F)oc2cc3c(cc12)C(C)CCCN3S(C)(=O)=O (stereo not drawn) | 8.15
CNC(=O)c1c(-c2ccc(F)cc2)oc2cc3c(cc12)C(C)OC(CO)CN3S(C)(=O)=O (stereo not drawn) | 7.92

Note down pEC50 recorded for `CNC(=O)c1c(-c2ccc(F)cc2)oc2cc3c(cc12)CCCN3S(C)(=O)=O`
6.35

// Input: CNC(=O)c1c(-c2ccc(F)cc2)oc2cc3c(cc12)C(C)n1nncc1CN3S(C)(=O)=O (stereo not drawn) . Output its pEC50 only.
8.22

Report measured pEC50; entry is CNC(=O)c1c(-c2ccc(F)cc2)oc2cc3c(cc12)C(C)CCCN3S(C)(=O)=O (stereo not drawn)
8.52

Query pEC50 for CNC(=O)c1c(-c2ccc(F)cc2)oc2cc3c(cc12)C(O)CCCN3S(C)(=O)=O (stereo not drawn)
6.97

###

Measured EC50 of individual entries
- assay protocol: Inhibition of HCV genotype 2a NS5B polymerase infected in human HuH7 replicon cells by luciferase reporter gene assay
The response must be a number in nM with no trailing unit.

Some entries whose results are on file:
compound | data value
CNC(=O)c1c(-c2ccc(F)cc2)oc2cc3c(cc12)C(C)OCC(CO)N3S(C)(=O)=O (configuration not stated) | 141
CNC(=O)c1c(-c2ccc(F)cc2)oc2cc3c(cc12)C(C)OC(CO)CN3S(C)(=O)=O (configuration not stated) | 62
CNC(=O)c1c(-c2ccc(F)cc2)oc2cc3c(cc12)C(C)OC(CS(C)(=O)=O)CN3S(C)(=O)=O (configuration not stated) | 64
CNC(=O)c1c(-c2ccc(F)cc2)oc2cc3c(cc12)C(C)OCC(CS(C)(=O)=O)N3S(C)(=O)=O (configuration not stated) | 134
CNC(=O)c1c(-c2ccc(F)cc2)oc2cc3c(cc12)[C@H](C)O[C@H](CS(C)(=O)=O)CN3S(C)(=O)=O | 18

Report EC50, nothing else, for this compound: `CNC(=O)c1c(-c2ccc(F)cc2)oc2cc(N(CCO)S(C)(=O)=O)c(C3CC3)cc12`
72

Provide EC50 value for the following compound: `CNC(=O)c1c(-c2ccc(F)cc2)oc2cc3c(cc12)[C@H](C)O[C@H](CO)CN3S(C)(=O)=O`
12

###

- assay protocol: Inhibition of HCV genotype 1a NS5A polymerase L31V/Y93H double mutant infected in human HuH7 replicon cells by luciferase reporter gene assay
measured quantity: pEC50
pEC50 here is simply -log10 of the concentration when that concentration is written in mol/L.

Determine from records and report pEC50 for `CNC(=O)c1c(-c2ccc(F)cc2)oc2cc3c(cc12)CCCCN3S(C)(=O)=O`
7.08

Name the recorded pEC50 of the compound listed here: `CNC(=O)c1c(-c2ccc(F)cc2)oc2cc3c(cc12)C(C)=CCCN3S(C)(=O)=O`
7.15

Return pEC50 (reported value) for this compound: `CNC(=O)c1c(-c2ccc(F)cc2)oc2cc3c(cc12)[C@H](C)OCCN3S(C)(=O)=O`
8.05

###

- assay protocol: Inhibition of HCV genotype 1b NS5B polymerase infected in human HuH7 replicon cells by luciferase reporter gene assay
Values of EC50 strictly less than 60 nM map to Fulfilled, and values of at least 60 nM map to Not fulfilled.

Given the entry `CNC(=O)c1c(-c2ccc(F)cc2)oc2cc3c(cc12)CCCCCCN3S(C)(=O)=O` , would its reported EC50 be below 60 nM?
Fulfilled

Find out if reported EC50 for `CNC(=O)c1c(-c2ccc(F)cc2)oc2cc3c(cc12)[C@H]1C[C@H]1CCN3S(C)(=O)=O` is less than 60 nM
Not fulfilled

###

- assay protocol: Inhibition of HCV genotype 3a NS5B polymerase infected in human HuH7 replicon cells by luciferase reporter gene assay
Below, each entry is listed alongside its reported pEC50.
Scale note: pEC50 = -log10(concentration in M).

Recorded pEC50, per entry:
compound | pEC50
CNC(=O)c1c(-c2ccc(F)cc2)oc2cc3c(cc12)C(C)OCC(CS(C)(=O)=O)N3S(C)(=O)=O (configuration not stated) | 7.15
CNC(=O)c1c(-c2ccc(F)cc2)oc2cc3c(cc12)C(C)OCC(CO)N3S(C)(=O)=O (configuration not stated) | 7.28
CNC(=O)c1c(-c2ccc(F)cc2)oc2cc(N(CCO)S(C)(=O)=O)c(C3CC3)cc12 | 7.72

Write down pEC50 measured for item `CNC(=O)c1c(-c2ccc(F)cc2)oc2cc3c(cc12)[C@H](C)O[C@H](CO)CN3S(C)(=O)=O`
8.22

Give recorded pEC50. CNC(=O)c1c(-c2ccc(F)cc2)oc2cc3c(cc12)C(C)OC(CO)CN3S(C)(=O)=O (configuration not stated)
7.70

Find the measured pEC50 of CNC(=O)c1c(-c2ccc(F)cc2)oc2cc3c(cc12)C(C)OC(CS(C)(=O)=O)CN3S(C)(=O)=O (configuration not stated) and report it.
7.77

Output measured pEC50 for this item: `CNC(=O)c1c(-c2ccc(F)cc2)oc2cc3c(cc12)[C@H](C)O[C@H](CS(C)(=O)=O)CN3S(C)(=O)=O`
8.00

###

- assay protocol: Inhibition of HCV genotype 1a NS5A polymerase infected in human HuH7 replicon cells by luciferase reporter gene assay
pEC50: −log10 of the molar value.
Short version: pEC50 at least 7 is Fulfilled, less is Not fulfilled.

Consider the worked cases shown below.
molecule | category label
CCNC(=O)c1c(-c2ccc(F)cc2)oc2cc3c(cc12)CCCCN3S(C)(=O)=O | Not fulfilled
CNC(=O)c1c(-c2ccc(F)cc2)oc2cc3c(cc12)[C@H](C)CCCN3S(C)(=O)=O | Fulfilled
CNC(=O)c1c(-c2ccc(F)cc2)oc2cc(N(CCO)S(C)(=O)=O)c(C3CC3)cc12 [HCV 796] | Fulfilled

Tell me whether pEC50 is at least 7 here: `CNC(=O)c1c(-c2ccc(F)cc2)oc2cc3c(cc12)[C@@H](C)O[C@H](CO)CN3S(C)(=O)=O`
Not fulfilled

Hi, just wondering whether `CNC(=O)c1c(-c2ccc(F)cc2)oc2cc3c(cc12)CCCCN3S(=O)(=O)C1CC1` shows pEC50 of 7 or higher.
Not fulfilled

Kindly determine if pEC50 recorded for `CNC(=O)c1c(-c2ccc(F)cc2)oc2cc3c(cc12)[C@H](C)O[C@H](CO)CN3S(C)(=O)=O` is above or exactly 7.
Fulfilled

###

- assay protocol: Inhibition of NS5B polymerase in HCV genotype 1b infected human HuH7 replicon cells assessed as reduction in viral RNA level after 3 days by RT-PCR assay
measured quantity: pEC50
The scale used: pEC50 is minus the common logarithm of the concentration in molar units.

Give recorded pEC50. `CNC(=O)c1c(-c2ccc(F)cc2)oc2cc(N(CCO)S(C)(=O)=O)c(C3CC3)cc12`
8.05
